Data origin, for the record: ChEMBL document CHEMBL1201862

System: CCRF-CEM
method: NCI tumour cell line growth inhibition, 48 h
Calls of active or inactive are those of the source. No stated cut-off is given here; in the data, active = GI50 up to about 1.1 µM and inactive = higher.
# reported GI50; entries follow

[
  {
    "compound": "c1ccc2cc3c(NC4=NCCO4)cccc3cc2c1",
    "tested.target": "CCRF-CEM",
    "GI50": "27.7 µM (inactive)"
  },
  {
    "compound": "COP1(=O)CC2C(Cl)(Cl)C2(C)C1 (centres undefined)",
    "tested.target": "CCRF-CEM",
    "GI50": "> 100 µM (inactive)"
  },
  {
    "compound": "Cc1cc(Br)c(O)c(-c2cscn2)c1",
    "tested.target": "CCRF-CEM",
    "GI50": "6.55 µM (inactive)"
  },
  {
    "compound": "CSCC(CO)NC(=O)/C=C/c1c(C)[nH]c(=O)[nH]c1=O (centres undefined)",
    "tested.target": "CCRF-CEM",
    "GI50": "153 µM (inactive)"
  },
  {
    "compound": "O=C(c1ccccc1)c1ccc(COc2ccc(C(c3c(O)c4ccccc4oc3=O)c3c(O)c4ccccc4oc3=O)cc2)cc1",
    "tested.target": "CCRF-CEM",
    "GI50": "3.84 µM (inactive)"
  },
  {
    "compound": "CCOC(=O)C1(C/C=C/CCl)CCCC1=O (centres undefined)",
    "tested.target": "CCRF-CEM",
    "GI50": "19.5 µM (inactive)"
  },
  {
    "compound": "COc1ccc([C@@H]2CC(=O)N2)cc1",
    "tested.target": "CCRF-CEM",
    "GI50": "> 100 µM (inactive)"
  },
  {
    "compound": "COc1ccc(C(OCC2OC(n3cc(C)c(=O)[nH]c3=O)CC2n2cc(Cn3cc(I)c(=O)[nH]c3=O)nn2)(c2ccccc2)c2ccccc2)cc1 (centres undefined)",
    "tested.target": "CCRF-CEM",
    "GI50": "11.2 µM (inactive)"
  },
  {
    "compound": "CC1OC(O[C@H]2CC[C@]3(C)[C@H]4CC=C5[C@@H]6[C@@H](C)[C@H](C)CC[C@]6(C(=O)OC6OC(CO)C(O)C(O)C6O)CC[C@@]5(C(=O)O)[C@]4(C)CC[C@H]3C2(C)C)C(O)C(O)C1O (some centres undefined)",
    "tested.target": "CCRF-CEM",
    "GI50": "> 100 µM (inactive)"
  }
]

* * *

// reported GI50 per item
Test system: TK-10
method: NCI tumour cell line growth inhibition, 48 h
The source made the active and inactive calls. No stated cut-off is given here; in the data, active = GI50 up to about 1.1 µM and inactive = higher.
quantity.kind: GI50

[
  {
    "molecule": "COc1c(-c2nc3ccc(N4CCN(C)CC4)nc3[nH]2)cc(OC)c2[nH]c(CO)nc12",
    "tested.target": "TK-10",
    "quantity.kind": "GI50",
    "observed": "> 100 µM (inactive)"
  },
  {
    "molecule": "COc1ccc(C2=NN(C(=O)c3ccc(Cl)cc3)C(O)(c3cc(F)c(Cl)cc3Cl)C2)cc1OC (centres undefined)",
    "tested.target": "TK-10",
    "quantity.kind": "GI50",
    "observed": "86.7 µM (inactive)"
  },
  {
    "molecule": "COc1cc(OC)c(OC)cc1/C=C\\c1nccc2ccccc12",
    "tested.target": "TK-10",
    "quantity.kind": "GI50",
    "observed": "27.8 µM (inactive)"
  },
  {
    "molecule": "O=C(O)c1cc(O)c2c(c1)Cc1cccc(O)c1C2=O",
    "tested.target": "TK-10",
    "quantity.kind": "GI50",
    "observed": "34.4 µM (inactive)"
  },
  {
    "molecule": "O=C(CNc1ccccc1[N+](=O)[O-])Nn1c(-c2ccccc2)nc2ccccc2c1=O",
    "tested.target": "TK-10",
    "quantity.kind": "GI50",
    "observed": "> 10 µM (inactive)"
  },
  {
    "molecule": "O=[N+]([O-])c1ccc2c(c1)OCCOCCOc1ccc([N+](=O)[O-])cc1OCCOCCO2",
    "tested.target": "TK-10",
    "quantity.kind": "GI50",
    "observed": "> 100 µM (inactive)"
  },
  {
    "molecule": "CC1(C)CC[C@]2(C)CC[C@]3(C)C(=CC[C@@H]4[C@@]5(C)CCC(=O)C(C)(C)[C@@H]5[C@H](O)C[C@]43C)[C@@H]2C1",
    "tested.target": "TK-10",
    "quantity.kind": "GI50",
    "observed": "16.5 µM (inactive)"
  },
  {
    "molecule": "CC(O)(CNS(=O)(=O)c1ccccc1)c1ccccc1 (centres undefined)",
    "tested.target": "TK-10",
    "quantity.kind": "GI50",
    "observed": "> 100 µM (inactive)"
  },
  {
    "molecule": "CC(=O)Oc1ccn2nc(C)c(Br)c2c1Br",
    "tested.target": "TK-10",
    "quantity.kind": "GI50",
    "observed": "45 µM (inactive)"
  }
]

* * *

Test system: UACC-62
method: NCI tumour cell line growth inhibition, 48 h
Calls of active or inactive are those of the source. No stated cut-off is given here; in the data, active = GI50 up to about 1.1 µM and inactive = higher.
Listed molecules paired with reported GI50

[
  {
    "molecule": "CC(CCC(=O)O)C(=O)O (configuration not stated)",
    "GI50": "> 100 µM (inactive)"
  },
  {
    "molecule": "O=[N+]([O-])c1cc(-[n+]2cc([O-])on2)ccc1F",
    "GI50": "17.1 µM (inactive)"
  },
  {
    "molecule": "NS(=O)(=O)c1nnc(/N=C(/CCC(=O)O)C(=O)O)s1",
    "GI50": "> 100 µM (inactive)"
  },
  {
    "molecule": "Cc1ccc(OP(=O)(Oc2ccc(C)cc2)N2C=Cc3ccccc3C2C#N)cc1 (configuration not stated)",
    "GI50": "> 100 µM (inactive)"
  },
  {
    "molecule": "Nc1nc(=O)n(C2OC(CO)C(O)C2O)c2ncc(-c3ccc(-c4ccccc4)cc3)nc12 (configuration not stated)",
    "GI50": "66.4 µM (inactive)"
  },
  {
    "molecule": "CC#CCCN(CC#N)Cc1ccccc1",
    "GI50": "18.1 µM (inactive)"
  },
  {
    "molecule": "CSc1nc2nc(C(O)C(O)C(O)CO)cnc2c(=O)[nH]1 (configuration not stated)",
    "GI50": "> 100 µM (inactive)"
  },
  {
    "molecule": "COc1ccc2oc(=N)c(C(N)=S)cc2c1",
    "GI50": "16 µM (inactive)"
  },
  {
    "molecule": "Cc1cc2ccccc2n2c1nc1ccc(O)cc12",
    "GI50": "> 10 µM (inactive)"
  },
  {
    "molecule": "COC(=O)/C=C(\\C)CCC1SC1(C)C (configuration not stated)",
    "GI50": "> 100 µM (inactive)"
  },
  {
    "molecule": "Nc1nc(N)c2ncn(-c3ccc(Cl)cc3)c2n1",
    "GI50": "29.7 µM (inactive)"
  },
  {
    "molecule": "CCCCCCc1nn2c(-c3ccncc3)nnc2s1",
    "GI50": "> 10 µM (inactive)"
  },
  {
    "molecule": "CCOC(=O)N1CCC(=O)C[C@@H]1C/C=C/P1(=O)O[C@H](c2ccccc2)C(C)N1C(C)C (some centres not stated)",
    "GI50": "> 100 µM (inactive)"
  },
  {
    "molecule": "COCC([C@@H](O)C(O)C(=O)NCC[C@@H](C)c1nc(/C=C/CC2OC3(C[C@H](O)C2C)OC(C(C[C@H](O)C(C)[C@H](O)C(C)/C=C(C)/C(C)=C/C=C/C(C)=C/C#N)OC)[C@@H](OP(=O)(O)O)C3(C)C)co1)N(C)C (some centres not stated)",
    "GI50": "0.000195 µM (active)"
  },
  {
    "molecule": "C=CC(Br)(CBr)CCC(Br)C(C)(C)Cl (configuration not stated)",
    "GI50": "4.78 µM (inactive)"
  },
  {
    "molecule": "O=C(C/N=C(\\CN(c1ccccc1)c1ccccc1)Oc1c(Cl)cc(Cl)cc1Cl)n1cnc2ccccc21",
    "GI50": "32.3 µM (inactive)"
  },
  {
    "molecule": "C1CSCCCSCCCSCCCSCCCSC1",
    "GI50": "44.6 µM (inactive)"
  }
]

* * *

Tested on: OVCAR-8
method: NCI tumour cell line growth inhibition, 48 h
Activity calls are given as the source filed them. Cut-off read from the data, not from the text of the source: active = GI50 up to about 1.1 µM and inactive = higher.
Outcome codes: YES = active, NO = inactive

[
  {
    "compound": "O=C(CCc1n[nH]c(=S)o1)Nc1ccccc1C(F)(F)F",
    "assigned.label": "NO"
  },
  {
    "compound": "CC1OC(=O)N(CCCC=C2SCCCS2)C1=O (configuration not stated)",
    "assigned.label": "NO"
  },
  {
    "compound": "O=c1c(=O)c2c(Br)sc(Br)c2c1=O",
    "assigned.label": "NO"
  },
  {
    "compound": "O=C1C(N2CCOCC2)=C(Cl)C(=O)c2ncccc21",
    "assigned.label": "NO"
  },
  {
    "compound": "CC(=O)OC1CCCn2c1nc1c2C(=O)C(C)=C(N2CC2)C1=O (configuration not stated)",
    "assigned.label": "YES"
  },
  {
    "compound": "OC1COC2CC(Nc3ccccn3)OC12 (configuration not stated)",
    "assigned.label": "NO"
  },
  {
    "compound": "c1ccc2cc3c(NC4=NCCO4)cccc3cc2c1",
    "assigned.label": "NO"
  },
  {
    "compound": "CCCCCCCCCCCCCCCCCC(=O)NCCCNCCCNC(=O)CCCCCCCCCCCCCCCCC",
    "assigned.label": "NO"
  },
  {
    "compound": "CN1CC(S(=O)(=O)c2ccccc2)CC(S(=O)(=O)c2ccccc2)C1c1ccccc1 (configuration not stated)",
    "assigned.label": "NO"
  },
  {
    "compound": "Cc1c(Cl)ccc2c1NC(=O)C2(O)C1Cc2ccccc2C1=O (configuration not stated)",
    "assigned.label": "NO"
  },
  {
    "compound": "CN(C)/N=N/c1ccc(C(N)=O)cc1",
    "assigned.label": "NO"
  },
  {
    "compound": "Cc1ccc(/N=N/c2ccc(O)c(CN(C)C)c2)cc1",
    "assigned.label": "NO"
  }
]
